B1: library; a variant is named by its letters at N, in order (parent)
chain: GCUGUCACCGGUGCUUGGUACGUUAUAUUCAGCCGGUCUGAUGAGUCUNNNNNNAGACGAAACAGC

- Variants of: B1
- Test: normalized RNA/DNA level with ligand (relative to sTRSVctl = 100) (log10 (% of sTRSVctl)); HEK293T overexpressing SLC46A1; ligand concentration (+) RNA-Seq: 6 mM; higher = less ribozyme self-cleavage, higher mRNA level
- Condition context: with (6R,S)-folinic acid; ligand present: yes
Endpoint: normalized RNA/DNA level with ligand (log10)
No unit in the answer, please; the number alone is enough.

In the examples that follow, each entry is paired with its recorded normalized RNA/DNA level with ligand (log10).
{"Primary sequence": "GCUGUCACCGGUGCUUGGUACGUUAUAUUCAGCCGGUCUGAUGAGUCUGCCGCGAGACGAAACAGC", "Reported measurement": 2.09}
{"Primary sequence": "GCUGUCACCGGUGCUUGGUACGUUAUAUUCAGCCGGUCUGAUGAGUCUCGUGCCAGACGAAACAGC", "Reported measurement": 2.01}
{"Primary sequence": "GCUGUCACCGGUGCUUGGUACGUUAUAUUCAGCCGGUCUGAUGAGUCUAGCACUAGACGAAACAGC", "Reported measurement": 2}

// GCUGUCACCGGUGCUUGGUACGUUAUAUUCAGCCGGUCUGAUGAGUCUUCAUUCAGACGAAACAGC : normalized RNA/DNA level with ligand (log10) value = 2.07

// GCUGUCACCGGUGCUUGGUACGUUAUAUUCAGCCGGUCUGAUGAGUCUACUGUGAGACGAAACAGC : normalized RNA/DNA level with ligand (log10) value = 2

// GCUGUCACCGGUGCUUGGUACGUUAUAUUCAGCCGGUCUGAUGAGUCUCCCACAAGACGAAACAGC : normalized RNA/DNA level with ligand (log10) value = 2
